target: reverse transcriptase (Human immunodeficiency virus type 1 group M subtype B); construct: negative control (mixture without reverse transcriptase); purchased Roche Diagnostics GmbH, Mannheim, Germany; assay: Biochemical Reverse Transcriptase Assay (Reverse Transcriptase Assay, colorimetric, Roche); details: read-out: IC50 (nM) RT Assay
Attribute Measured: IC50 (nM)
// note: answer is a bare numeric in nM

Kindly state the measured IC50 obtained for O=C1CN(C(=O)c2cc(-c3cccc(F)c3)n(-c3ccc(F)c(Cl)c3)n2)CN1 [Example 26] with reverse transcriptase (Human immunodeficiency virus type 1 group M subtype B).
104

Form: Entry = COc1cccc(-c2cc(C(=O)N3CNC(=O)C3)nn2-c2ccc(F)c(Cl)c2)c1 [Example 38] | System = reverse transcriptase (Human immunodeficiency virus type 1 group M subtype B) | IC50 = ____
365

Test system reverse transcriptase (Human immunodeficiency virus type 1 group M subtype B); read-out IC50; what value for N#Cc1cc(-n2nc(C(=O)N3CNC(=O)C3)cc2-c2cccc(Cl)c2)ccc1F [Example 53] ?
46

reverse transcriptase (Human immunodeficiency virus type 1 group M subtype B) / IC50 / COc1cc(F)cc(-c2cc(C(=O)N3CNC(=O)C3)nn2-c2ccc(F)c(Cl)c2)c1 [Example 22] : value?
131

----------
target: reverse transcriptase (Human immunodeficiency virus type 1 group M subtype B); construct: negative control (mixture without reverse transcriptase); purchased Roche Diagnostics GmbH, Mannheim, Germany; assay: Biochemical Reverse Transcriptase Assay (Reverse Transcriptase Assay, colorimetric, Roche); conditions: read-out: IC50 (nM) RT Assay
Attribute Measured: IC50
Remember to put the unit after the number in your answer.

Given the compound O=C1CN(C(=O)c2cc(-c3cc(F)cc(Cl)c3)n(-c3ccc(F)c(Cl)c3)n2)CN1 , what is its reported IC50?
38 nM

Please report the recorded IC50 for O=C1CN(C(=O)c2cc(-c3cccc(Cl)c3)n(-c3cccc(Br)c3)n2)CN1 .
65 nM

Any idea what IC50 was measured for N#Cc1cccc(-n2nc(C(=O)N3CNC(=O)C3)cc2-c2ccc(F)c(Cl)c2)c1 ?
38 nM

Report IC50 for N#Cc1cc(F)cc(-c2cc(C(=O)N3CNC(=O)C3)nn2-c2ccc(F)c(C#N)c2)c1 please.
102 nM

Fill in the blank: the reported IC50 of N#Cc1cccc(-n2nc(C(=O)N3CNC(=O)C3)cc2-c2cccc(Cl)c2)c1 is ____.
14 nM

Tell me the measured IC50 of N#Cc1cccc(-c2cc(C(=O)N3CNC(=O)C3)nn2-c2ccc(F)c(Cl)c2)c1 , please.
99 nM

Dear colleague, I am looking for the recorded IC50 of the following compound: COc1cc(F)cc(-c2cc(C(=O)N3CNC(=O)C3)nn2-c2cccc(Cl)c2)c1
59 nM

// returns reported IC50 for input Cc1cc(F)cc(-c2cc(C(=O)N3CNC(=O)C3)nn2-c2cccc(Cl)c2)c1
60 nM

Recorded IC50 for N#Cc1cc(F)cc(-c2cc(C(=O)N3CNC(=O)C3)nn2-c2ccc(F)c(Cl)c2)c1 , please?
49 nM

IC50 lookup needed for O=C1CN(C(=O)c2cc(-c3cccc(OCCCN4CCOCC4)c3)n(-c3cccc(Cl)c3)n2)CN1 , thanks.
175 nM

Value lookup for IC50; key = O=C1CN(C(=O)c2cc(-c3cc(F)cc(C(F)(F)F)c3)n(-c3cccc(Cl)c3)n2)CN1
297 nM

Which IC50 is reported for this compound? O=C1CN(C(=O)c2cc(-c3cc(F)cc(Cl)c3)n(-c3cccc(Cl)c3)n2)CN1
34 nM

What IC50 value was documented for this compound, N#Cc1cc(F)cc(-c2cc(C(=O)N3CNC(=O)C3)nn2-c2cccc(C#N)c2)c1 ?
25 nM

Name the recorded IC50 for O=C1CN(C(=O)c2cc(-c3cccc(Cl)c3)n(-c3cccc(Cl)c3)n2)CN1 .
75 nM

Given the entry N#Cc1cccc(-n2nc(C(=O)N3CNC(=O)C3)cc2-c2cc(F)cc(Cl)c2)c1 , report its measured IC50.
8 nM

I'd like to know its IC50. The compound in question is O=C1CN(C(=O)c2cc(-c3cc(F)cc(F)c3)n(-c3cccc(Cl)c3)n2)CN1
37 nM

Which measured IC50 value corresponds to N#Cc1cc(F)cc(-c2cc(C(=O)N3CNC(=O)C3)nn2-c2cccc(Cl)c2)c1 ?
35 nM

# input compound: O=C1CN(C(=O)c2cc(-c3ccc(F)c(Cl)c3)n(-c3cccc(Br)c3)n2)CN1 ; wanted: its IC50
8 nM

Recorded IC50 for N#Cc1cc(-n2nc(C(=O)N3CNC(=O)C3)cc2-c2cc(F)cc(Cl)c2)ccc1F , please?
9 nM
